Assay: chemical genetic growth profiling, strain panel (AID 1159580);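 note: tested at 20 µM; growth read once vehicle control cultures reached saturation at 30 °C; 1 = growth at the plate median or of vehicle wells; lower values mean less growth of the strain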
Conditions: S. cerevisiae deletion strains, growth OD, locus YNL322C, strain KRE1, active compounds read low
Out of some 5,500 compounds screened, about 2,000 (36%) were called active. Inconclusive results (about 18%) are left out. The list shows a part of the results.
endpoint.label: normalized growth
Form: value (number only, do not type unit).

# annotated cases, reported normalized growth shown
Cc1c(O)c(O)cc2c1CC=C1[C@@]2(C)CC[C@@]2(C)C3C[C@](C)(C(=O)O)CC[C@]3(C)CC[C@]12C (stereo partly specified) = 0.937
O=C(O)/C=C/c1cnc[nH]1 = 1.03
O=C(O)c1ccccc1Nc1cccc(OCc2ccc3ccccc3n2)c1 = 1.02
CC1C(c2ccccc2)OCCN1CN1C(=O)c2ccccc2C1=O (stereo unspecified) = 0.993
CCN(CC)CCOc1ccc(/C(=C(\Cl)c2ccccc2)c2ccccc2)cc1 = 0.0484

Next:
Query: Suppose we examine the molecule `CCN(CC)CCOc1ccc2c(c1)C(=O)c1cc(OCCN(CC)CC)ccc1-2` ; what normalized growth value has been reported?
Reply: 0.983
